Assay: Solubility (Test F)
Type: physicochemical
Conditions: arithmetic mean if run multiple times
Hi, to clarify the labels: satisfied covers solubility from 80 µM upward, not satisfied covers anything below 80 µM.

compound	class-name
COc1cc(F)c(O[C@H]2CC[C@@H](C(=O)O)CC2)cc1C(=O)N[C@@H]1[C@H]2CC[C@H](C2)[C@@H]1C(=O)N[C@H](C)C(C)(C)C [Example 200]	not satisfied
COc1cc(F)c(O[C@H]2CC[C@@](C)(C(=O)O)CC2)cc1C(=O)N[C@@H]1CCC[C@@H]1C(=O)N[C@@H](C)C(C)C [Example 55]	satisfied
CCC(CC)CNC(=O)[C@H]1[C@@H]2CC[C@@H](C2)[C@H]1NC(=O)c1cc(OC2CCC(C)(C(=O)O)CC2)c(F)cc1OC (stereo partly drawn) [Example 43]	satisfied
COc1cc(F)c(O[C@H]2CC[C@@](C)(C(=O)O)CC2)cc1C(=O)N[C@H]1[C@@H]2CC[C@@H](C2)[C@H]1C(=O)Nc1ccc(F)c(S(F)(F)(F)(F)F)c1 [Example 206]	not satisfied
COc1cc(C#N)c(O[C@H]2CC[C@@](C)(C(=O)O)CC2)cc1C(=O)N[C@@H]1[C@H]2CC[C@H](C2)[C@@H]1C(=O)NCC1(O)CCCC1 [Example 74]	satisfied

----------
Target: human RXFP1 (Homo sapiens)
Sequence (Q9HBX9 1-757): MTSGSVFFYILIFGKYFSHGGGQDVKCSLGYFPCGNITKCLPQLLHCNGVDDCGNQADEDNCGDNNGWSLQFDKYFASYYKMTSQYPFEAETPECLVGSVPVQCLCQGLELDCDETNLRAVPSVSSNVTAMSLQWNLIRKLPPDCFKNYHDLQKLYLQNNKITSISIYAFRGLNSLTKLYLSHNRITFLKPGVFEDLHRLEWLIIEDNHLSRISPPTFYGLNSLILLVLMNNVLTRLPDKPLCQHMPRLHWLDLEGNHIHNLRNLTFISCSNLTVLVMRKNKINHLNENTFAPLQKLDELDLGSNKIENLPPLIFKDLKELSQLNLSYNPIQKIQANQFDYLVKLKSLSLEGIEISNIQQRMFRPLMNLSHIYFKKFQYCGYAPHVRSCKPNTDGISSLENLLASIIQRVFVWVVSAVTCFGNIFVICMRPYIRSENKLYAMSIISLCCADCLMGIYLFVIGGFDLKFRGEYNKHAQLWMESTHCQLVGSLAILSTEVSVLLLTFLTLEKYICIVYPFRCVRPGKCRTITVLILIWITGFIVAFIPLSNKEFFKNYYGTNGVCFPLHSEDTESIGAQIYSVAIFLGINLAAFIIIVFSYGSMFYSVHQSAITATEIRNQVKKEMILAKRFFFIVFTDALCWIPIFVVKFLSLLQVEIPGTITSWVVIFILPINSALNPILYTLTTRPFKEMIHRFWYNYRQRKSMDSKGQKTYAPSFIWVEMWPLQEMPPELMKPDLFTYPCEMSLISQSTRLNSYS
Assay: RXFP1 Hu cAMP (Test A)
Format: cell-based
Parameters: expressed in transfected cells; host or cells: Jump-In T-REx CHO-K1 cells (ThermoFisher), induced with 10 ng/ml doxycycline for 24 h
Conditions: RXFP1 Hu cAMP

compound	test-system	u	Test A Sinf
COc1cc(C#N)c(O[C@H]2CC[C@@](C)(C(=O)O)CC2)cc1C(=O)N[C@@H]1[C@H]2CC[C@H](C2)[C@@H]1C(=O)NC[C@@H](C)c1ccccc1	human RXFP1 (Homo sapiens)	%	116
COc1cc(F)c(OCCCCCCCCC(=O)O)cc1C(=O)N[C@@H]1[C@H]2CC[C@H](C2)[C@@H]1C(=O)Nc1cccc(S(=O)(=O)C(F)(F)F)c1	human RXFP1 (Homo sapiens)	%	104
COc1cc(C#N)c(O[C@H]2CC[C@@](C)(C(=O)O)CC2)cc1C(=O)N[C@@H]1[C@H]2CC[C@H](C2)[C@@H]1C(=O)NCC1(F)CCOCC1	human RXFP1 (Homo sapiens)	%	102
COc1cc(F)c(-c2c[nH]c(C(=O)O)c2)cc1C(=O)N[C@H]1[C@@H](C(=O)Nc2cccc(S(=O)(=O)C(F)(F)F)c2)[C@@H]2C=C[C@H]1C2 (racemic)	human RXFP1 (Homo sapiens)	%	55
COc1cc(C#N)c(O[C@H]2C[C@]3(C2)C[C@H](C(=O)O)C3)cc1C(=O)N[C@@H]1[C@H]2CC[C@H](C2)[C@@H]1C(=O)NCC1(C)CCC1 (single isomer, unassigned)	human RXFP1 (Homo sapiens)	%	86

----------
Assay: Rat Hepatocyte Stability (Test E)
Type: in vitro ADME
Conditions: rat, hepatocytes, geometric mean if run multiple times

compound	hepatocyte CLint (µL/min/1e6 cells)
COc1cc(F)c(O[C@H]2CC[C@@H](C(N)=O)CC2)cc1C(=O)N[C@@H]1[C@H]2CC[C@H](C2)[C@@H]1C(=O)Nc1ccc(F)c(C(F)(F)F)c1	98
COc1cc(F)c(-c2cccc(C(=O)O)c2)cc1C(=O)N[C@H]1[C@@H](C(=O)Nc2ccc(F)c(S(=O)(=O)C(F)(F)F)c2)[C@@H]2C=C[C@H]1C2 (racemic)	12
COc1cc(F)c(-c2ccc(C(=O)O)cc2)cc1C(=O)N[C@@H]1[C@H]2CC[C@H](C2)[C@@H]1C(=O)Nc1cccc(S(F)(F)(F)(F)F)c1	23
COc1cc(F)c(O[C@H]2CC[C@@](C)(C(=O)O)CC2)cc1C(=O)N[C@@H]1[C@H]2CC[C@H](C2)[C@@H]1C(=O)NCC(C)(C)C	23
COc1cc(Cl)c(O[C@H]2CC[C@@](C)(C(=O)O)CC2)cc1C(=O)N[C@@H]1[C@H]2CC[C@H](C2)[C@@H]1C(=O)NCC(C)(C)C	24
COc1cc(F)c(O[C@H]2CC[C@@](C)(C(=O)O)CC2)cc1C(=O)Nc1ccccc1C(=O)NCC(C)(C)C	9.8

----------
Test: Human Liver Microsomal Stability (Test C)
Format: in vitro ADME
Conditions: human liver microsomes
Reported Test C Human Liver Microsomal Stability Clint values follow for various compounds
value-kind: Test C Human Liver Microsomal Stability Clint

compound	reported-measurement
COc1cc(F)c(O[C@H]2CC[C@@](C)(C(N)=O)CC2)cc1C(=O)N[C@@H]1[C@H]2CC[C@H](C2)[C@@H]1C(=O)NCC1(F)CCOCC1	88 µL/min/mg
CCC(C)CNC(=O)C1C2CCC(C2)C1NC(=O)c1cc(OC2CCC(C(=O)O)CC2)c(F)cc1OC (single isomer, unassigned)	19 µL/min/mg
COc1cc(F)c(O[C@H]2CC[C@@](C)(C(=O)O)CC2)cc1C(=O)N[C@H]1C[C@@H](OC)C[C@H]1C(=O)Nc1cccc(S(=O)(=O)C(F)(F)F)c1 (stereo in doubt)	>300 µL/min/mg
COc1cc(F)c(O[C@H]2CC[C@@](C)(C(=O)O)CC2)cc1C(=O)N[C@@H]1COC[C@@H]1C(=O)Nc1cccc(S(=O)(=O)C(F)(F)F)c1 (relative stereo)	17 µL/min/mg
COc1cc(C#N)c(O[C@H]2CC[C@@](C)(C(=O)O)CC2)cc1C(=O)N[C@H]1C2CCC(CC2)[C@H]1C(=O)NCC1(C)CCC1 (relative stereo)	63 µL/min/mg
COc1cc(F)c(O[C@H]2CC[C@@](C)(C(=O)O)CC2)cc1C(=O)N[C@@H]1COCC[C@@H]1C(=O)Nc1cccc(S(=O)(=O)C(F)(F)F)c1 (relative stereo)	9.4 µL/min/mg

----------
Reported solubility values follow for various compounds
Assay: Solubility (Test F)
Type: physicochemical
Conditions: arithmetic mean if run multiple times

compound	solubility
COc1cc(F)c(O[C@H]2CC[C@@](C)(C(=O)O)CC2)cc1C(=O)N[C@@H]1[C@H]2CC[C@H](C2)[C@@H]1C(=O)NCC(C)C	880 µM
COc1cc(C#N)c(O[C@H]2CC[C@@](C)(C(=O)O)CC2)cc1C(=O)N[C@@H]1[C@H]2CC[C@H](C2)[C@@H]1C(=O)NCC(=O)NC(C)C	920 µM
COc1cc(F)c(-c2ccc([C@@H]3C[C@H]3C(=O)O)nc2)cc1C(=O)N[C@@H]1[C@H]2CC[C@H](C2)[C@@H]1C(=O)Nc1cccc(S(=O)(=O)C(F)(F)F)c1 (single isomer, unassigned)	> 1000 µM

----------
Molecular target: human RXFP1 (Homo sapiens, UniProt Q9HBX9)
Sequence (Q9HBX9 1-757): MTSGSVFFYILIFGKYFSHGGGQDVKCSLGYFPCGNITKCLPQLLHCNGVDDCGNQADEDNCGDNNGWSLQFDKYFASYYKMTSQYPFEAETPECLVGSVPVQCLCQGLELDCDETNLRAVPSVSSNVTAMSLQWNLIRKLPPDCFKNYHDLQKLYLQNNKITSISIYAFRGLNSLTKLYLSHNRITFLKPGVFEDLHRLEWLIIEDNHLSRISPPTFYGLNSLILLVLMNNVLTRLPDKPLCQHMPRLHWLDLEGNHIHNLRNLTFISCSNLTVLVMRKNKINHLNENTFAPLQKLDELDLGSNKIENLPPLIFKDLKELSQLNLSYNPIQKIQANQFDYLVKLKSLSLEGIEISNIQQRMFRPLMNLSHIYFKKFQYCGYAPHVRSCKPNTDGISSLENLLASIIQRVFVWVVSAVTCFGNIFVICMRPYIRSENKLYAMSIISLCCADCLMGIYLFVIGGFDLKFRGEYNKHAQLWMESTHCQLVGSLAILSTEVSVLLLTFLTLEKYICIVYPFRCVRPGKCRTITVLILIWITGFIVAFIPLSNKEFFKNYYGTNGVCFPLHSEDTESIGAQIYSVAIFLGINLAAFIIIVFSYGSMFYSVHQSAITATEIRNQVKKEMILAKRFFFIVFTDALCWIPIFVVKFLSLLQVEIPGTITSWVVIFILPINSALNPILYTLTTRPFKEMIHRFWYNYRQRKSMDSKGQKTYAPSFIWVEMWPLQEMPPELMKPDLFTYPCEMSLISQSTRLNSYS
Assay: RXFP1 Hu cAMP (Test A)
Assay type: cell-based
Set-up: expressed in transfected cells; host or cells: Jump-In T-REx CHO-K1 cells (ThermoFisher), induced with 10 ng/ml doxycycline for 24 h
Details: RXFP1 Hu cAMP
Reported Test A Sinf values follow for various molecules

molecule	u	Test A Sinf
COc1cc(F)c(O[C@H]2CC[C@@](C)(C(=O)O)CC2)cc1C(=O)N[C@@H]1[C@H]2CC[C@H](C2)[C@@H]1C(=O)NCC(F)(F)C(F)(F)F	%	93
COC[C@]1(C(=O)O)CC[C@@H](Oc2cc(C(=O)N[C@@H]3[C@H]4CC[C@H](C4)[C@@H]3C(=O)Nc3cccc(S(=O)(=O)C(F)(F)F)c3)c(OC)cc2F)CC1	%	112
COc1cc(F)c(-c2ccc(C(=O)O)cc2)cc1C(=O)N[C@@H]1[C@H]2CC[C@H](C2)[C@@H]1C(=O)Nc1cccc(S(=O)(=O)C(F)(F)F)c1	%	101
COc1cc(F)c(-c2ccc(C(N)(CO)CO)cc2)cc1C(=O)N[C@@H]1[C@H]2CC[C@H](C2)[C@@H]1C(=O)Nc1cccc(S(=O)(=O)C(F)(F)F)c1	%	78
COc1cc(F)c(OCc2cccc(CC(=O)O)c2)cc1C(=O)N[C@H]1[C@@H](C(=O)Nc2cccc(S(=O)(=O)C(F)(F)F)c2)[C@@H]2C=C[C@H]1C2 (racemic)	%	155
COc1cc(F)c(O[C@H]2CC[C@@](O)(C(=O)O)CC2)cc1C(=O)N[C@@H]1[C@H]2CC[C@H](C2)[C@@H]1C(=O)NCC1(C)CCC1	%	118
COc1cc(F)c(-c2ccc(C3(C(=O)O)CC3)cc2)cc1C(=O)N[C@H]1[C@@H](C(=O)Nc2cccc(S(=O)(=O)C(F)(F)F)c2)[C@@H]2C=C[C@H]1C2 (racemic)	%	107
CC1(CNC(=O)[C@H]2[C@@H]3CC[C@@H](C3)[C@H]2NC(=O)c2cc(O[C@H]3CC[C@@](C)(C(=O)O)CC3)c(Cl)cc2F)CCC1	%	106
COc1cc(F)c(O[C@H]2CC[C@@H](C(=O)O)CC2)cc1C(=O)N[C@@H]1[C@H]2CC[C@H](C2)[C@@H]1C(=O)NC1CC(F)(F)C1	%	88
COc1cc(F)c(O[C@H]2CC[C@@](C)(C(=O)O)CC2)cc1C(=O)N[C@@H]1[C@H]2CC[C@H](C2)[C@@H]1C(=O)NCC1(C)CC1	%	114
COc1cc(F)c(O[C@H]2CC[C@@H](C(=O)O)CC2)cc1C(=O)N[C@H]1[C@@H](C(=O)Nc2cccc(S(=O)(=O)C(F)(F)F)c2)[C@@H]2C=C[C@H]1C2 (racemic)	%	98
